protocolDetails: Cytotoxicity against Swiss mouse peritoneal macrophages after 48 hrs by MTT assay
Format: cell-based, Peritoneal macrophage cell
assayConditions: read-out: LC50
observationType: CC50 at 48 h

Q) Which CC50 at 48 h value is on record for Cn1c([N+](=O)[O-])cnc1-c1nnc(N/N=C\c2ccc(O)cc2)s1 ?
A) > 100 µM

Q) Which CC50 at 48 h value is on record for Cn1c([N+](=O)[O-])cnc1-c1nnc(N/N=C\c2ccc(O)c(O)c2)s1 [BRAZILIZONE A] ?
A) > 60 µM

Q) Which CC50 at 48 h value is on record for Cn1c([N+](=O)[O-])cnc1-c1nnc(N/N=C\c2ccc(Br)cc2)s1 ?
A) > 60 µM
